Target: intracellular GCN2 (phosphorylation of the GCN2 substrate eIF2α) (Homo sapiens)
Sequence (Q9P2K8 whole entry): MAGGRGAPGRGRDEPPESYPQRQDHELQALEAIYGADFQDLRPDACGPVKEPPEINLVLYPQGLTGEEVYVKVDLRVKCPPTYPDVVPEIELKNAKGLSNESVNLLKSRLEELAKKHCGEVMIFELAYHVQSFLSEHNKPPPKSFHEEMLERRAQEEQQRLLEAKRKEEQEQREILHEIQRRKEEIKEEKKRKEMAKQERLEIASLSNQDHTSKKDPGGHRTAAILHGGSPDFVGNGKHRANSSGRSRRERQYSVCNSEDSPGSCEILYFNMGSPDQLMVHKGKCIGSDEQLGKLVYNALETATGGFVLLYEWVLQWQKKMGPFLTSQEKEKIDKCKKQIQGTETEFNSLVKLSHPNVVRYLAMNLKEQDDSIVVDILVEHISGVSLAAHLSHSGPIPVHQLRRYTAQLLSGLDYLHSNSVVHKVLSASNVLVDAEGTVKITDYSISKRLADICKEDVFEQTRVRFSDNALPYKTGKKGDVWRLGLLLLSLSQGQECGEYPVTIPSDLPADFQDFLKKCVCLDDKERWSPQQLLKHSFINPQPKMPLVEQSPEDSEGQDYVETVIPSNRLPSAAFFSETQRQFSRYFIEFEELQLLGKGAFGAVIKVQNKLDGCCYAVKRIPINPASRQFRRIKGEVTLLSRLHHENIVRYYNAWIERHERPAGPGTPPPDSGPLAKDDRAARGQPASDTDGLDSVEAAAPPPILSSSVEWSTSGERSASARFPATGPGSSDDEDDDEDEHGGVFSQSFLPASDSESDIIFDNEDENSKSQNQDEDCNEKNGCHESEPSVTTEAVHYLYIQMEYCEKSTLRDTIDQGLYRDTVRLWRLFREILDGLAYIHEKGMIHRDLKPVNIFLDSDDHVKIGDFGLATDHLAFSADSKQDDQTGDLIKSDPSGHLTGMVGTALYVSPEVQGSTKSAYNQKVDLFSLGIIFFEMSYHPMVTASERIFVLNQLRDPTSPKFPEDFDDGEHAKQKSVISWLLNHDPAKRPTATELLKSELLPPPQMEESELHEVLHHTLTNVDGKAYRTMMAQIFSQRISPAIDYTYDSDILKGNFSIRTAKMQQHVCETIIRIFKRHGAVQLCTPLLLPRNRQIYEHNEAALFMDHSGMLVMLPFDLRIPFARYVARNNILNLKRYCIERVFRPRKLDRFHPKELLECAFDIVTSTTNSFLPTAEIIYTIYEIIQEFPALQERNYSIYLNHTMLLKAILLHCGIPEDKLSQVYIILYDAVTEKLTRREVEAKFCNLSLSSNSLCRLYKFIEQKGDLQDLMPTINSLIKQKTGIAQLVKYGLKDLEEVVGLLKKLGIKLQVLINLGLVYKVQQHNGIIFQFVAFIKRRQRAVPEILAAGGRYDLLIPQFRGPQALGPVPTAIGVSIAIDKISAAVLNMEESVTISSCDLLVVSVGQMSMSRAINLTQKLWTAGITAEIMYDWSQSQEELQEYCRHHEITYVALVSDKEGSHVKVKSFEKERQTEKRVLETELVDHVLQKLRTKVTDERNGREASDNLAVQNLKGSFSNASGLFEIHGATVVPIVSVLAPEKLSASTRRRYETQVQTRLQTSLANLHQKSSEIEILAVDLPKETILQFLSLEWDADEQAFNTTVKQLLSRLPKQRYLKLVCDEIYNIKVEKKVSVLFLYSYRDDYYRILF
Assay: GCN2 cellular inhibition assay (AlphaScreen SureFire P-eIF2α Ser51, borrelidin-treated U2OS cells)
Type: cell-based
Details: compounds of Formula IV; biomarker assay, phosphorylated eIF2α Ser51 in borrelidin-treated U2OS cells
Attribute: IC50

CC1C(C(N)=O)CCCN1c1ccnc(-c2cnc3cnc(C(F)F)cn23)n1 (centres unmarked) [IV-109] : 0.5 to 5 µM
FC(F)(F)c1cn2c(-c3nccc(N4CCCCC4)n3)cnc2cn1 : > 5 µM
CC1CN(c2nccc(-c3cnc4cnc(C(F)(F)F)cn34)n2)CC(c2cn[nH]c2)O1 (single isomer, unassigned) [IV-200] : 0.5 to 5 µM
FC(F)(F)c1cn2c(-c3nccc(N4CCC(c5c[nH]nc5C(F)(F)F)C4)n3)cnc2cn1 (single isomer, unassigned) [IV-629] : 0.5 to 5 µM
FC(F)c1cn2c(-c3nccc(N4CCCC(c5nn[nH]n5)C4)n3)cnc2cn1 (centres unmarked) : > 5 µM

Sample OC[C@@H]1CCCN(c2ccnc(-c3cnc4cnc(C(F)F)cn34)n2)C1 — what was its IC50? > 5 µM

Sample FC(F)(F)c1cn2c(-c3nccc(N4CCC=C(c5cnsc5)C4)n3)cnc2cn1 — what was its IC50? 0.5 to 5 µM

Sample FC(F)(F)c1cn2c(-c3nccc(N4CCC(c5cn[nH]c5)C4)n3)cnc2cn1 (centres unmarked) [IV-494] — what was its IC50? 0.5 to 5 µM
